# target_entity: Neuronal acetylcholine receptor subunit alpha-7 (Rattus norvegicus, UniProt Q05941)
# Sequence (Q05941 whole entry): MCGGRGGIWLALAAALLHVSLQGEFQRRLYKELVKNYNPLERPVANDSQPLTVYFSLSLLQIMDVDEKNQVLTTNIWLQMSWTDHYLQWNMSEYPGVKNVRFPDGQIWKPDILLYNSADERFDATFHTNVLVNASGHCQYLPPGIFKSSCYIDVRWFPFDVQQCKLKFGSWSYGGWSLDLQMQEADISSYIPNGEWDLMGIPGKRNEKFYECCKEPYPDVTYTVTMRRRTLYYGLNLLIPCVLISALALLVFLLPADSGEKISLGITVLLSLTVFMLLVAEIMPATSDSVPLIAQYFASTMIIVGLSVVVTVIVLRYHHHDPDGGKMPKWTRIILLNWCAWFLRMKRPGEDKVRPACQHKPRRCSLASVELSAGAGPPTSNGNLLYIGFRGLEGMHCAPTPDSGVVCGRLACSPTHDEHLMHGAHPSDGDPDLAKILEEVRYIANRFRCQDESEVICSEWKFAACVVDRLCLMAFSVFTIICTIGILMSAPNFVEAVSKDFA
# test_description: Displacement of [3H]MLA from alpha7 nAChR in rat brain membranes after 2 hrs
measurement_type: pKi
Friendly reminder that pKi comes from taking -log10 of the concentration in mol/L.

Given the compound O=C(N[C@H]1CN2CCC1CC2)c1c[nH]c2ccccc12 , write its reported pKi. 8.22

----------
Known Ratio of a selection of molecules
# Species on record: Homo sapiens
# test_description: Selectivity index, reciprocal of ratio of Ki for alpha7 nAChR transfected in human SH-SY5Y cells to KI for human alpha4beta2 nAChR transfected in HEK293 cells
# Type: cell-based
Enter a number only.

Consider the molecule Fc1ccc(COc2cccc(-c3cn([C@H]4CN5CCC4CC5)nn3)c2)cc1 and give its recorded Ratio. 193

State, in one line, measured Ratio of Fc1cccc(-c2cn([C@H]3CN4CCC3CC4)nn2)c1 44

Give me measured Ratio, please, for this molecule: Fc1ccc(-c2cn([C@@H]3CN4CCC3CC4)nn2)cc1 3

Give recorded Ratio. Oc1ccc(-c2cn([C@@H]3CN4CCC3CC4)nn2)cc1 16

Quick one: give measured Ratio for FCCOc1cccc(-c2cn([C@@H]3CN4CCC3CC4)nn2)c1 17

Query Ratio for FCCCOc1cccc(-c2cn([C@H]3CN4CCC3CC4)nn2)c1 145

Give Ratio for Fc1cccc(-c2cn(C3CN4CCC3CC4)nn2)c1 (racemic) 5.6

Answer with the recorded Ratio for the molecule listed here: Fc1ccc(COc2cccc(-c3cn([C@@H]4CN5CCC4CC5)nn3)c2)cc1 3.6

Output Ratio of FCCOc1cccc(-c2cn(C3CN4CCC3CC4)nn2)c1 (racemic) 20

Please give the documented Ratio of FCCCOc1cccc(-c2cn([C@@H]3CN4CCC3CC4)nn2)c1 20

Given FCCCOc1cccc(-c2cn(C3CN4CCC3CC4)nn2)c1 (racemic) , respond with its Ratio. 52

----------
The reader will find reported log10 of Ki values listed item by item below.
# target_entity: Neuronal acetylcholine receptor; alpha3/beta4 (Homo sapiens, UniProt P30926+P32297)
# Sequence (P30926 whole entry): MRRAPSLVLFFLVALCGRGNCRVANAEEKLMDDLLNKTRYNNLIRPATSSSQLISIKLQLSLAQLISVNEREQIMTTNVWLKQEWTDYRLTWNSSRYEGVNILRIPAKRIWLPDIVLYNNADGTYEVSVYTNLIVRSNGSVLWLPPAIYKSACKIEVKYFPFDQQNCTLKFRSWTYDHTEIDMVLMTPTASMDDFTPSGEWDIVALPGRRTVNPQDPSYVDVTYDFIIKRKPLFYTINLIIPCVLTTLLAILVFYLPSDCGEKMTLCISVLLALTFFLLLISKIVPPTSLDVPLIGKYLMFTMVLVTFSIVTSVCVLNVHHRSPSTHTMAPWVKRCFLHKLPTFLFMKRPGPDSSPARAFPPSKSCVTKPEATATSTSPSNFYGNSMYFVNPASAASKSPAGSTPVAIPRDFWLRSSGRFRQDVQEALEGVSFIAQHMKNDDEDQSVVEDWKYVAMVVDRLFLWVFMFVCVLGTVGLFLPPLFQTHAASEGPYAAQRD
# Sequence (P32297 whole entry): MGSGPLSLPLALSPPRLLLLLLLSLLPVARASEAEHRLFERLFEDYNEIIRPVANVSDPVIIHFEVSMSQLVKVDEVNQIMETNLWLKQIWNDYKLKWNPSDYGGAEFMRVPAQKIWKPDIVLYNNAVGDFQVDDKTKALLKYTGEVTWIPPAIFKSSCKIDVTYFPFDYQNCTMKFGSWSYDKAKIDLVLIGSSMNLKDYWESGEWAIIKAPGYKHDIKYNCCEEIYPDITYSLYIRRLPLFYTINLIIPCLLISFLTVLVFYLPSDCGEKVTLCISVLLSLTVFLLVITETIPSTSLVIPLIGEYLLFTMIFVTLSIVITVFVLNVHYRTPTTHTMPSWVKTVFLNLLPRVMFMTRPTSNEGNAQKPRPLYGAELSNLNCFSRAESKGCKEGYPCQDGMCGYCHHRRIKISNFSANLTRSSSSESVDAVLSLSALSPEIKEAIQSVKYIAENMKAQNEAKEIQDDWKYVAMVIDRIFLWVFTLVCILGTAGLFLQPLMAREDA
# test_description: Displacement of [3H]epibatidine from human alpha3beta4 nAChR transfected in HEK293 cell membranes after 120 mins by liquid scintillation counting
Each number you see is log10 of Ki, and the unit inside the log is nM.

Some solved cases for reference:
Fc1cccc(-c2cn([C@@H]3CN4CCC3CC4)nn2)c1 | 0.35
Fc1ccc(COc2cccc(-c3cn(C4CN5CCC4CC5)nn3)c2)cc1 (racemic) | 1.14
c1ccc(COc2cccc(-c3cn(C4CN5CCC4CC5)nn3)c2)cc1 (racemic) | 0.88
FCCCOc1cccc(-c2cn([C@H]3CN4CCC3CC4)nn2)c1 | 3.21

Entry Fc1ccc(-c2cn([C@H]3CN4CCC3CC4)nn2)cc1 needs its log10 of Ki filled in; supply it. 3.00

----------
# target_entity: Neuronal acetylcholine receptor; alpha3/beta4 (Homo sapiens, UniProt P30926+P32297)
# test_description: Displacement of [3H]epibatidine from human alpha3beta4 nAChR transfected in HEK293 cell membranes after 120 mins by liquid scintillation counting
measurement_type: Ki (nM)
Just the number in nM, nothing appended.

Here are 3 molecules together with their reported answers.
FCCCOc1cccc(-c2cn(C3CN4CCC3CC4)nn2)c1 (racemic) | 44.4
Oc1ccc(-c2cn(C3CN4CCC3CC4)nn2)cc1 (racemic) | 3.44
Fc1cccc(-c2cn([C@H]3CN4CCC3CC4)nn2)c1 | 362

Please look at the following molecule next.
Give the value of Ki reported for the following: Fc1ccc(-c2cn([C@@H]3CN4CCC3CC4)nn2)cc1 3.09
